The following compounds are shown together with reported % Inhibition (FS) 1 μM values.
Target: β-secretase(BACE) (Homo sapiens)
Construct: purchased Panvera
Experiment: BACE FS1% Inhibition Assay
Format: biochemical
Conditions: 1 μM test compound; FS1 substrate

Which % Inhibition (FS) 1 μM is reported for this compound? CN(C(=O)CCC(CO)N1Cc2cc(Oc3ccccc3)ccc2N=C1N)C1CCCCC1 (centres unmarked) <30%

And NC1=Nc2ccc(Oc3ccccc3)cc2CN1Cc1cccc(C(=O)NC2CCCCC2)c1 ? <30%

* * *

Molecular target: β-secretase(BACE) (Homo sapiens, UniProt P56817)
Construct: purchased Panvera
Sequence (P56817 46-501): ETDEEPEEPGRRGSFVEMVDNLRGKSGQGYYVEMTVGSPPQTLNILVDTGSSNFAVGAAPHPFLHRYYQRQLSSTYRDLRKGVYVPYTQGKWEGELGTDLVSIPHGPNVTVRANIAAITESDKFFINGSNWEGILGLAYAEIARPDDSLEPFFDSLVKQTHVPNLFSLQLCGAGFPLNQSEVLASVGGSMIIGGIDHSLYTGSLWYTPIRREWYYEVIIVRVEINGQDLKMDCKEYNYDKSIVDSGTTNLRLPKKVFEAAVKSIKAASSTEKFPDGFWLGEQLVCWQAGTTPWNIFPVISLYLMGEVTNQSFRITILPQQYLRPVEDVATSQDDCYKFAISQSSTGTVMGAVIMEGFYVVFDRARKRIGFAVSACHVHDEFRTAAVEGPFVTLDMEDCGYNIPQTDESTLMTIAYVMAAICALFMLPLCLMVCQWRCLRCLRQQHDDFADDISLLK
Test: BACE FS1% Inhibition Assay
Assay type: biochemical
Conditions: 3 μM test compound; FS1 substrate
Procedure: BACE FS1% Inhibition Assay The following reagents were used in this assay: sodium acetate, PEG8000 (Sigma), DMSO, HEPES, FS1 substrate [[…]] […] The FS1-substrate stock solution was prepared in DMSO as a 10 mg/mL solution. The FS1-substrate working solution was prepared by diluting the 10 mg/mL stock solution with substrate assay buffer to a final concentration of 300 μg/mL. […] For test compounds, % inhibition was determined at each concentration as follows: [formula]
PROPERTY: % Inhibition (FS) 3 μM (%)

Example results:
Which % Inhibition (FS) 3 μM is reported for this compound? CN(C(=O)c1cccc(CN2Cc3cc(Nc4ccc(C5CCCCC5)cc4)ccc3N=C2N)c1)C1CCCCC1 38

And CC(C)(C)C1CCC(C(=O)NCCN2Cc3cc(Oc4ccccc4)ccc3N=C2N)CC1 (stereo not shown) ? 31

And CN(C(=O)c1cccc(CN2Cc3cc(-c4ccc(C5CCCCC5)cc4)ccc3N=C2N)c1)C1CCCCC1 ? 38

1 = CC(C)c1ccccc1Oc1ccc2c(c1)CN(C(CC(=O)NC1CCCCC1)C1CCCCC1)C(N)=N2 (stereo not shown)
2 = NC1=Nc2ccc(Oc3ccccc3)cc2CN1Cc1cccc(C(=O)N2CCC3CCCCC3C2)c1 (stereo not shown)
Hey, which is lower on measured % Inhibition (FS) 3 μM, 1 or 2 ? # respond with the chosen item's label 1

* * *

Biological target: β-secretase(BACE) (Homo sapiens, UniProt P56817)
Construct: purchased Panvera
Assay: BACE FS1% Inhibition Assay
Format: biochemical
Conditions: 3 μM test compound; FS1 substrate
PROPERTY: % Inhibition (FS) (%)

I'm curious: which % Inhibition (FS) was measured for CN(C(=O)CC[C@@H](C1CCCCC1)N1Cc2ccc(Oc3ccccc3)cc2N=C1N)C1CCCCC1 tested on β-secretase(BACE) (Homo sapiens, UniProt P56817)? 89

A = CN(C(=O)CCC(C1CCOCC1)N1Cc2cc(Oc3ccccc3)ccc2N=C1N)C1CCC(C(=O)O)CC1 (stereo not shown)
B = NC1=Nc2ccc(-c3ccccc3)cc2CN1CCNC(=O)C1CCC(C(F)(F)F)CC1 (stereo not shown)
Hey, which is lower on measured % Inhibition (FS), A or B ? # respond with the chosen item's label B
(B: 54%, A: 130%)

* * *

Biological target: β-secretase(BACE) (Homo sapiens, UniProt P56817)
Construct: purchased Panvera
Assay: BACE FS1% Inhibition Assay
Type: biochemical
Details: 0.3 μM test compound; FS1 substrate; read-out: % Inhibition (FS) 0.3 μM
Experimental: BACE FS1% Inhibition Assay The following reagents were used in this assay: sodium acetate, PEG8000 (Sigma), DMSO, HEPES, FS1 substrate [[…]] […] The FS1-substrate stock solution was prepared in DMSO as a 10 mg/mL solution. The FS1-substrate working solution was prepared by diluting the 10 mg/mL stock solution with substrate assay buffer to a final concentration of 300 μg/mL. […] For test compounds, % inhibition was determined at each concentration as follows: [formula]
PROPERTY: inhibition at 0.3 µM (%)

I'm curious: which inhibition at 0.3 µM was measured for CN(C(=O)c1cccc(C(C2CCCCC2)N2Cc3cc(Oc4ccccc4)ccc3N=C2N)c1)C1CCCCC1 (stereo not shown) tested on β-secretase(BACE) (Homo sapiens, UniProt P56817)? 54

And Cc1ccccc1-c1ccc2c(c1)CN(CCNC(=O)C1CCCC1)C(N)=N2 ? 88

And CC(C)CC(=O)NC[C@@H](C(C)C)N1Cc2cc(Oc3ccccc3)ccc2N=C1N ? 101

And CN(C(=O)CC[C@@H](C(=O)N(C)C1CCCCC1)N1Cc2cc(Oc3ccccc3)ccc2N=C1N)C1CCCCC1 ? 46

And CN(C(=O)c1cccc(CN2Cc3cc(-c4ccsc4)ccc3N=C2N)c1)C1CCCCC1 ? 67

A = CC(C)[C@H](CNC(=O)C1CCCCC1)N1Cc2cc(Oc3ccccc3)ccc2N=C1N
B = NC1=Nc2ccc(-c3ccccc3F)cc2CN1CCNC(=O)C1CCCCC1
C = COc1ccccc1-c1ccc2c(c1)CN(CCNC(=O)C1CCCCC1)C(N)=N2
D = COc1cccc(OC)c1-c1ccc2c(c1)CN(Cc1cccc(C(=O)N(C)C3CCCCC3)c1)C(N)=N2
// smallest inhibition at 0.3 µM at index 0, largest at the end Arrange the labels as the request states and list them. D, C, B, A
(D: 26%, C: 38%, B: 57%, A: 114%)
